Listed molecules paired with reported Minimal inhibitory concentration (MIC)
system: MDR Escherichia coli CCARM 1238; format: cell-based; conditions: MDREC 1238; 99% growth inhibition; 2 × 10^5 CFU/ml, 37°C, 16 h, A600
Non-standard residues stand in square brackets, D forms with d. Residues, ends and D or L forms follow the SMILES beside them.
Lab book: enter the figure in µM, no units written.

# annotated cases, reported Minimal inhibitory concentration (MIC) shown
molecule: CC[C@@H](C)[C@@H](NC(=O)[C@@H](C)NC(=O)[C@@H](CC(C)C)NC(=O)[C@@H](Cc1c[nH]c2ccccc12)NC(=O)[C@@H](CC(C)C)NC(=O)[C@H](N)CCCNC(=N)N)C(=O)N[C@H](Cc1c[nH]c2ccccc12)C(=O)N[C@H](CCCNC(=N)N)C(=O)N[C@H](CCCNC(=N)N)C(N)=O [Pro9-3D] (H-[dR][dL][dW][dL][dA][dI][dW][dR][dR]-NH2)
system.under.test: MDR Escherichia coli CCARM 1238
Minimal inhibitory concentration (MIC) (µM): 4
//
molecule: CC[C@@H](C)[C@@H](NC(=O)[C@@H](C)NC(=O)[C@@H](CC(C)C)NC(=O)[C@@H](Cc1c[nH]c2ccccc12)NC(=O)[C@@H](CC(C)C)NC(=O)[C@H](N)CCCCN)C(=O)N[C@H](Cc1c[nH]c2ccccc12)C(=O)N[C@H](CCCCN)C(=O)N[C@H](CCCCN)C(N)=O [Pro9-3D-K] (H-[dK][dL][dW][dL][dA][dI][dW][dK][dK]-NH2)
system.under.test: MDR Escherichia coli CCARM 1238
Minimal inhibitory concentration (MIC) (µM): 16

Qu. Which value of Minimal inhibitory concentration (MIC) has been reported for CC[C@H](C)[C@H](NC(=O)[C@H](C)NC(=O)[C@H](CC(C)C)NC(=O)[C@H](Cc1c[nH]c2ccccc12)NC(=O)[C@H](CC(C)C)NC(=O)[C@@H](N)CCCCN)C(=O)N[C@@H](Cc1c[nH]c2ccccc12)C(=O)N[C@@H](CCCCN)C(=O)N[C@@H](CCCCN)C(N)=O [Pro9-3-K] (H-KLWLAIWKK-NH2) in the records?
Ans. 64

---

tested on: MDR Escherichia coli CCARM 1238; assay type: cell-based; settings: MDREC 1238; 99% growth inhibition; 2 × 10^5 CFU/ml, 37°C, 16 h, A600
Residues, ends and D or L forms follow the SMILES beside them.
property.label: Minimal inhibitory concentration (MIC)
Returns: string containing the numeric result and its unit.

Qu. Which value of Minimal inhibitory concentration (MIC) has been reported for CC[C@H](C)[C@H](NC(=O)[C@H](C)NC(=O)[C@H](CC(C)C)NC(=O)[C@H](Cc1c[nH]c2ccccc12)NC(=O)[C@H](CC(C)C)NC(=O)[C@@H](N)CCCNC(=N)N)C(=O)N[C@@H](Cc1c[nH]c2ccccc12)C(=O)N[C@@H](CCCNC(=N)N)C(=O)N[C@@H](CCCNC(=N)N)C(N)=O [Pro9-3] (H-RLWLAIWRR-NH2) in the records?
Ans. 32 µM
